Reference source for all entries: ChEMBL document CHEMBL3885881

The compounds listed here are annotated with their ABSOLUTE LYMPHOCYTE.
Species on record: Rattus norvegicus
test_description: DrugMatrix - Regimen: Daily Repeat
Type: toxicity, organism-based, Sprague-Dawley
Parameters: regimen Daily Repeat, gender Male, age 6-8 weeks
applied_conditions: in vivo, iv, 0 mg/kg, 72 h, tissue Blood, dose level Control, time 3 day, vehicle 100 % SALINE
Quick note: give the figure in CELLS/uL, leave out the unit.

Given the compound C[N+](C)(C)CCOC(=O)CCC(=O)OCC[N+](C)(C)C.[Cl-].[Cl-] [SUCCINYLCHOLINE CHLORIDE] , what is its reported ABSOLUTE LYMPHOCYTE? 15717.5

Given the compound O=C(O)P(=O)(O)O , what is its reported ABSOLUTE LYMPHOCYTE? 13190.83

Given the compound O=c1[nH]c(=O)n([C@H]2C[C@H](O)[C@@H](CO)O2)cc1F , what is its reported ABSOLUTE LYMPHOCYTE? 11636.83

Given the compound N=C(N)c1ccc(OCCCCCOc2ccc(C(=N)N)cc2)cc1 , what is its reported ABSOLUTE LYMPHOCYTE? 15717.5

Given the compound COc1cccc2c1C(=O)c1c(O)c3c(c(O)c1C2=O)C[C@@](O)(C(C)=O)C[C@@H]3O[C@H]1C[C@H](N)[C@H](O)[C@H](C)O1 , what is its reported ABSOLUTE LYMPHOCYTE? 10193.67

---

The compounds listed here are annotated with their EOSINOPHIL.
Species on record: Rattus norvegicus
test_description: DrugMatrix - Regimen: Daily Repeat
Format: toxicity, organism-based, Sprague-Dawley
Set-up: regimen Daily Repeat, gender Male, age 6-8 weeks
applied_conditions: in vivo, po, 0 mg/kg, 120 h, tissue Blood, route oral GAVAGE, dose level Control, time 5 day, […]
Quick note: give the figure in %, leave out the unit.

Given the compound CC(=O)Oc1ccccc1C(=O)O , what is its reported EOSINOPHIL? 0

Given the compound CC(C)c1c(C(=O)Nc2ccccc2)c(-c2ccccc2)c(-c2ccc(F)cc2)n1CC[C@@H](O)C[C@@H](O)CC(=O)O , what is its reported EOSINOPHIL? 0.5

Given the compound c1ccoc1 , what is its reported EOSINOPHIL? 0.53

Given the compound CS(=O)(=O)Nc1ccc([N+](=O)[O-])cc1Oc1ccccc1 [NIMESULIDE] , what is its reported EOSINOPHIL? 0

Given the compound O=c1c(-c2ccc(O)cc2)coc2cc(O)cc(O)c12 , what is its reported EOSINOPHIL? 0.5

Given the compound CCCCC(=O)N(Cc1ccc(-c2ccccc2-c2nnn[nH]2)cc1)[C@H](C(=O)O)C(C)C , what is its reported EOSINOPHIL? 0.17

Given the compound CCc1ccc(CCOc2ccc(CC3SC(=O)NC3=O)cc2)nc1 (configuration not stated) , what is its reported EOSINOPHIL? 0.33

---

Species on record: Rattus norvegicus
test_description: DrugMatrix - Regimen: Daily Repeat
Assay type: toxicity, organism-based, Sprague-Dawley
Design: regimen Daily Repeat, gender Male, age 6-8 weeks
applied_conditions: in vivo, po, 0 mg/kg, 120 h, tissue Plasma, route oral GAVAGE, dose level Control, time 5 day, vehicle 100 % WATER
Kind request: treat 70 mg/dL as inclusive, so CHOLESTEROL at 70 mg/dL or higher is TRUE, anything lower is FALSE.

Take a look at these entries with their results.
1. O=c1[nH]c(=O)n(C2CCCO2)cc1F (stereo not given) [TEGAFUR]	TRUE
2. CN(C)CCC=C1c2ccccc2CCc2ccccc21 [AMITRIPTYLINE]	TRUE

Now for a further compound.
CHOLESTEROL >= 70 mg/dL for C#Cc1cccc(Nc2ncnc3cc(OCCOC)c(OCCOC)cc23)c1 [ERLOTINIB] ? FALSE

---

The compounds listed here are annotated with their LIPASE.
Organism: Rattus norvegicus
test_description: DrugMatrix - Regimen: Daily Repeat
Assay type: toxicity, organism-based, Sprague-Dawley
Set-up: regimen Daily Repeat, gender Male, age 6-8 weeks
applied_conditions: in vivo, iv, 0 mg/kg, 72 h, tissue Plasma, dose level Control, time 3 day, vehicle 100 % SALINE
Quick note: give the figure in u/L, leave out the unit.

Worked examples follow.
1) C[N+](C)(C)CCOC(=O)CCC(=O)OCC[N+](C)(C)C.[Cl-].[Cl-] [SUCCINYLCHOLINE CHLORIDE]	9.2
2) O=c1[nH]c(=O)n([C@H]2C[C@H](O)[C@@H](CO)O2)cc1F	9.83
3) O=C(O)P(=O)(O)O	8.83

Given the compound N=C(N)c1ccc(OCCCCCOc2ccc(C(=N)N)cc2)cc1 , what is its reported LIPASE? 9.2

Given the compound COc1cccc2c1C(=O)c1c(O)c3c(c(O)c1C2=O)C[C@@](O)(C(C)=O)C[C@@H]3O[C@H]1C[C@H](N)[C@H](O)[C@H](C)O1 , what is its reported LIPASE? 10.83

---

Species on record: Rattus norvegicus
test_description: DrugMatrix - Regimen: Daily Repeat
Format: toxicity, organism-based, Sprague-Dawley
Set-up: regimen Daily Repeat, gender Male, age 6-8 weeks
applied_conditions: in vivo, po, 0 mg/kg, 120 h, tissue Plasma, route oral GAVAGE, dose level Control, time 5 day, vehicle .5 % CMC
The molecules listed here are annotated with their LIPASE.
Numeric answer plus unit only.

Given the molecule CN(C)C(=O)C(CCN1CCC(O)(c2ccc(Cl)cc2)CC1)(c1ccccc1)c1ccccc1 [LOPERAMIDE] , what is its reported LIPASE? 9.5 u/L

Given the molecule CCOc1nc2cccc(C(=O)O)c2n1Cc1ccc(-c2ccccc2-c2nnn[nH]2)cc1 , what is its reported LIPASE? 10.67 u/L

Given the molecule CCC1=C(C)CN(C(=O)NCCc2ccc(S(=O)(=O)NC(=O)N[C@H]3CC[C@H](C)CC3)cc2)C1=O [GLIMEPIRIDE] , what is its reported LIPASE? 9.5 u/L

Given the molecule C[C@@](Cc1ccc(O)c(O)c1)(NN)C(=O)O.O , what is its reported LIPASE? 8.67 u/L

---

Organism: Rattus norvegicus
test_description: DrugMatrix - Regimen: Daily Repeat
Format: toxicity, organism-based, Sprague-Dawley
Parameters: regimen Daily Repeat, gender Male, age 6-8 weeks
applied_conditions: in vivo, iv, 0 mg/kg, 72 h, tissue Blood, dose level Control, time 3 day, vehicle 100 % SALINE
experimental_endpoint: EOSINOPHIL (%)
Quick note: give the figure in %, leave out the unit.

Worked examples follow.
1) N=C(N)c1ccc(OCCCCCOc2ccc(C(=N)N)cc2)cc1 [PENTAMIDINE]	1.17
2) O=c1[nH]c(=O)n([C@H]2C[C@H](O)[C@@H](CO)O2)cc1F [FLOXURIDINE]	0
3) O=C(O)P(=O)(O)O [FOSCARNET]	1.67
4) COc1cccc2c1C(=O)c1c(O)c3c(c(O)c1C2=O)C[C@@](O)(C(C)=O)C[C@@H]3O[C@H]1C[C@H](N)[C@H](O)[C@H](C)O1 [DAUNORUBICIN]	0.17

Could you now look at the following molecule, please?
Given the molecule C[N+](C)(C)CCOC(=O)CCC(=O)OCC[N+](C)(C)C.[Cl-].[Cl-] [SUCCINYLCHOLINE CHLORIDE] , what is its reported EOSINOPHIL? 1.17

---

The molecules listed here are annotated with their PLATELET COUNT.
Species: Rattus norvegicus
test_description: DrugMatrix - Regimen: Daily Repeat
Type: toxicity, organism-based, Sprague-Dawley
Parameters: regimen Daily Repeat, gender Male, age 6-8 weeks
applied_conditions: in vivo, iv, 0 mg/kg, 120 h, tissue Blood, dose level Control, time 5 day, vehicle 100 % SALINE
Quick note: give the figure in x10E3/uL, leave out the unit.

1) O=C(O)P(=O)(O)O [FOSCARNET]	1266
2) COc1cccc2c1C(=O)c1c(O)c3c(c(O)c1C2=O)C[C@@](O)(C(C)=O)C[C@@H]3O[C@H]1C[C@H](N)[C@H](O)[C@H](C)O1 [DAUNORUBICIN]	1170.5
3) N=C(N)c1ccc(OCCCCCOc2ccc(C(=N)N)cc2)cc1 [PENTAMIDINE]	1352.5
4) C[N+](C)(C)CCOC(=O)CCC(=O)OCC[N+](C)(C)C.[Cl-].[Cl-] [SUCCINYLCHOLINE CHLORIDE]	1352.5

Could you now look at the following molecule, please?
Given the molecule O=c1[nH]c(=O)n([C@H]2C[C@H](O)[C@@H](CO)O2)cc1F [FLOXURIDINE] , what is its reported PLATELET COUNT? 1261.83

---

The molecules listed here are annotated with their CREATINE PHOSPHOKINASE.
Organism: Rattus norvegicus
test_description: DrugMatrix - Regimen: Daily Repeat
Format: toxicity, organism-based, Sprague-Dawley
Set-up: regimen Daily Repeat, gender Male, age 6-8 weeks
applied_conditions: in vivo, po, 0 mg/kg, 120 h, tissue Plasma, route oral GAVAGE, dose level Control, time 5 day, vehicle .5 % CMC
Quick note: give the figure in u/L, leave out the unit.

Worked examples follow.
1) CCn1cc(C(=O)O)c(=O)c2cc(F)c(N3CCNC(C)C3)c(F)c21 (configuration not stated)	110.67
2) CCCCC1=NC2(CCCC2)C(=O)N1Cc1ccc(-c2ccccc2-c2nnn[nH]2)cc1	891.33

Given the molecule NC(=O)N1c2ccccc2CC(=O)c2ccccc21 [OXCARBAZEPINE] , what is its reported CREATINE PHOSPHOKINASE? 273.5

Given the molecule CN(C)CCN(Cc1cccs1)c1ccccn1 , what is its reported CREATINE PHOSPHOKINASE? 525.5

Given the molecule CCOc1nc2cccc(C(=O)O)c2n1Cc1ccc(-c2ccccc2-c2nnn[nH]2)cc1 , what is its reported CREATINE PHOSPHOKINASE? 481.83

Given the molecule C[C@]12CC[C@@H]3c4ccc(O)cc4CC[C@H]3[C@@H]1C[C@@H](O)[C@@H]2O , what is its reported CREATINE PHOSPHOKINASE? 417.5

Given the molecule COc1ccc2c(c1OC)C(=O)O[C@@H]2[C@H]1c2c(cc3c(c2OC)OCO3)CCN1C , what is its reported CREATINE PHOSPHOKINASE? 148.33

Given the molecule CN(C)C(=O)C(CCN1CCC(O)(c2ccc(Cl)cc2)CC1)(c1ccccc1)c1ccccc1 [LOPERAMIDE] , what is its reported CREATINE PHOSPHOKINASE? 628.17

Given the molecule C[C@@](Cc1ccc(O)c(O)c1)(NN)C(=O)O.O , what is its reported CREATINE PHOSPHOKINASE? 231.83

Given the molecule COc1cc(OC)c(C(=O)CCCN2CCCC2)c(OC)c1 , what is its reported CREATINE PHOSPHOKINASE? 239.5

Given the molecule CN1C(=O)CN=C(c2ccccc2)c2cc([N+](=O)[O-])ccc21 , what is its reported CREATINE PHOSPHOKINASE? 148.33

Given the molecule CCC1=C(C)CN(C(=O)NCCc2ccc(S(=O)(=O)NC(=O)N[C@H]3CC[C@H](C)CC3)cc2)C1=O [GLIMEPIRIDE] , what is its reported CREATINE PHOSPHOKINASE? 628.17

Given the molecule C[C@H]1[C@H](NC(=O)/C(=N\OC(C)(C)C(=O)O)c2csc(N)n2)C(=O)N1S(=O)(=O)O , what is its reported CREATINE PHOSPHOKINASE? 231.83

Given the molecule CCCNC(=O)NS(=O)(=O)c1ccc(Cl)cc1 [CHLORPROPAMIDE] , what is its reported CREATINE PHOSPHOKINASE? 120.33

Given the molecule C#C[C@]1(O)CC[C@H]2[C@@H]3CCC4=CC(=O)CC[C@]4(C)[C@H]3CC[C@@]21C , what is its reported CREATINE PHOSPHOKINASE? 148.33

Given the molecule C[C@@H]1O[C@@H](O[C@H]2C[C@@H](O)[C@]3(CO)[C@H]4[C@H](O)C[C@]5(C)[C@@H](C6=CC(=O)OC6)CC[C@]5(O)[C@@H]4CC[C@]3(O)C2)[C@H](O)[C@H](O)[C@H]1O , what is its reported CREATINE PHOSPHOKINASE? 284

Given the molecule CN1CCN(C2=Nc3cc(Cl)ccc3Nc3ccccc32)CC1 , what is its reported CREATINE PHOSPHOKINASE? 120.33
